# IC50 values compiled below
Target: Proline--tRNA ligase (Plasmodium falciparum (isolate 3D7))
Sequence (Q8I5R7 whole entry): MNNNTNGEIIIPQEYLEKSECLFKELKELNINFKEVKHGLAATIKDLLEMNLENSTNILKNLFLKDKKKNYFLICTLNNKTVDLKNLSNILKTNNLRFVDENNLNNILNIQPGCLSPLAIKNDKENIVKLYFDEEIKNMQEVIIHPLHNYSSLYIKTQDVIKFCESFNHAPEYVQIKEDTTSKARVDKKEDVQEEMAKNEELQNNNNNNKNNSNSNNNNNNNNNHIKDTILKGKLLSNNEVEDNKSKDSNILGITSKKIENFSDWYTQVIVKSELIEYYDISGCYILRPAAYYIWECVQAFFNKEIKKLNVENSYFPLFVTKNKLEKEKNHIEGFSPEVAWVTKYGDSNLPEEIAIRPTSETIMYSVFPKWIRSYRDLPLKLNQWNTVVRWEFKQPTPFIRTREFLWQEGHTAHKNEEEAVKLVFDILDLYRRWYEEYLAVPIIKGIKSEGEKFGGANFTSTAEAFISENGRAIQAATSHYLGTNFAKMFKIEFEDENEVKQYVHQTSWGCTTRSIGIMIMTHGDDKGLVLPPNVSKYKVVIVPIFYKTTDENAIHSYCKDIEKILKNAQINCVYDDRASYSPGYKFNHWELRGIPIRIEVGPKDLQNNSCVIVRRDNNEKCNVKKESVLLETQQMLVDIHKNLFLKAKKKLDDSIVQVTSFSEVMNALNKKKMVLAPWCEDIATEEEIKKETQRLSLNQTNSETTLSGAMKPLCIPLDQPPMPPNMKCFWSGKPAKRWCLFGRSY
Test: MMV: ProRS recombinant Plasmodium falciparum Prolyl-tRNA-synthetase, assay with yeast tRNA, ATP, and proline and 3 uM MMV malaria box compound, assay read out with kinase glo as % inhibition.

Here's what some known entries look like.
COc1ccc(-c2nonc2NC(=O)c2cccc(C)c2)cc1OC: > 2500 nM
CCOc1cc(CNC(C)C(O)c2ccccc2)cc(Cl)c1OCC (stereo not given): > 2500 nM

Request: # query: IC50 of entry Cc1ccc(-c2cc3nc4c(c(O)n3n2)CCCC4)cc1
Result: > 2500 nM

Request: Consider the molecule Cc1sc(NC(=O)c2ccccc2)c(C(c2cccs2)N2CCN(c3ccccc3)CC2)c1C (stereo not given) and give its measured IC50.
Result: > 2500 nM

Request: // query IC50 value for entry CCCCOC(=O)c1ccc(Nc2cc(C)nc3ccc(OC)cc23)cc1
Result: > 2500 nM

Request: Would you kindly share the measured IC50 for Cc1ccccc1OCCSc1nc2ccc(NC(=O)c3cccs3)cc2s1 ?
Result: > 2500 nM

Request: // lookup IC50 for c1ccc(/C2=N/c3ccccc3/N=C(/c3ccccc3)c3ccccc32)cc1
Result: > 2500 nM

meta.source: ChEMBL document CHEMBL3301562
